Tested on: DU-145
Test: Cytotoxicity against human DU-145 cells assessed as reduction in cell viability
Assay type: functional, cell-based
MEASURED PROPERTY: IC50

INPUT: Report IC50 for Cc1ccccc1OS(=O)(=O)C1CC2OC1C(c1ccc(NC(=O)CCCCCCC(=O)NO)cc1)=C2c1ccc(O)cc1 (stereo unspecified) please.
OUTPUT: > 100 µM

---

Test system: KG-1
Experiment: Cytotoxicity against human KG-1 cells assessed as reduction in cell viability by MTT assay
Type: functional, cell-based
MEASURED PROPERTY: IC50 (nM)
Numeric only. Scale: nM

INPUT: Recorded IC50 of Cn1cc(-c2ccnc(Nc3ccc(C(=O)NCCCCCCC(=O)NO)cc3)n2)c2ccccc21 , please.
OUTPUT: 240
